Data origin, for the record: PubChem BioAssay (NCATS)

assay summary: qHTS for Activators of p53 Stress Response Pathway screened against the NCATS CANVASS Library (AID 1347388)
setup conditions: p53RE-bla HCT-116, beta-lactamase reporter, 16 h; series mostly up to 46.1 µM
Records with an inconclusive call do not appear. The source made the active and inactive calls. Calls follow the shape of the dose curve; as a rule, active = well fitted activation curve with a large enough effect; inconclusive = small, poorly fitted or top-dose-only effect; inactive = flat fitted curve, though single readings scatter.
Respond only with the outcome that fits, drawn from T (active), F (inactive)

Ask | Call for entry `C=C[C@@]1(C)CC[C@@H]([C@H](C)C(C)=O)O1` :
Reply | F

Ask | Please answer likewise for `CN1CC[C@]23c4ccccc4N[C@H]1[C@]21CCN(C)[C@H]3Nc2ccccc21`
Reply | F

Ask | Another compound: `CC[C@@H]1C[C@@]2(CC)OC(=O)[C@@]3(CC)[C@H](CC)[C@@H]1[C@@H]23`
Reply | F

Ask | What about this compound? `CO[C@H]1/C=C/CCCCC(=O)O[C@@H](/C(C)=C/[C@H](C)C(=O)C[C@H](O)CC2CC(=O)NC(=O)C2)[C@@H](C)C1`
Reply | F

Ask | Now consider `CC[C@H](O)CCCCC[C@@H]1NC(=O)[C@H]2CCCCN2C(=O)[C@H]([C@H](C)CC)NC(=O)[C@H](Cc2cn(OC)c3ccccc23)NC1=O` .
Reply | F

Ask | Also need `C[C@@]12CCC[C@@](C)(C(=O)O)[C@H]1C[C@@H](O)[C@@]13C[C@@H](CC[C@@H]21)[C@](C)(O)C3` , thanks.
Reply | F

Ask | How about this compound: `C/C(=C\[C@H](C)C(=O)CCCC1CC(=O)NC(=O)C1)[C@@H]1OC(=O)/C=C/CC/C=C/[C@H](O)[C@@H](O)[C@@H]1C`
Reply | F

Ask | Would you mind doing O=C1OC(CCO)c2cccc(O)c21 (stereo not drawn) as well?
Reply | F

Ask | Ok, now `COC(=O)[C@@]1(C)CCC[C@]2(C)c3cc(OC)ccc3CC[C@@H]12`
Reply | F

Ask | Same question for `C=C[C@@]1(C)CC[C@@H]([C@H](C)C(=O)/C=C/C(C)(C)O)O1` please.
Reply | F

Ask | Try the compound `O[C@H]1c2ccccc2-c2c3c(cc4c2[C@@H]1NCC4)OCO3`
Reply | T

Ask | Again, but for `CC(C)=CCC/C(C)=C/Cc1cc([C@@H]2CC(=O)c3c(cc(O)c(CC=C(C)C)c3O)O2)ccc1O`
Reply | F

Ask | What about this compound? C[C@@]1(CCC(=O)Nc2c(O)ccc(C(=O)O)c2O)C(=O)C=C[C@]23C[C@H]4C[C@H](O[C@@]4(C)C2)C31 (stereo partly drawn)
Reply | F

Ask | Next up: `CC(C)=CCC[C@]1(C)[C@H]2CC(=O)[C@@]3(CO3)[C@@H]1C2`
Reply | F

Ask | Subsequent entry: C/C(=C\CC[C@@H](C)[C@H]1CC[C@]2(C)C3=CCC4C(C)(C)[C@@H](O)C[C@@H](O)[C@]4(C)C3[C@H](O)C[C@@]12C)CO (stereo partly drawn)
Reply | F

Ask | Can you check `C=C[C@@](C)(O)CC[C@@H]1[C@@]2(C)CCCC(C)(C)[C@@H]2CC[C@@]1(C)O` next?
Reply | F

Ask | Lookup `C/C=C1/C2=CCCN3C(=O)O[C@H]([C@H]1O)[C@H]23`
Reply | F

Ask | Now this one: C[C@H]1CCC2(OC1)O[C@H]1C[C@H]3[C@@H]4CC(=O)[C@]5(O)C[C@H](O)CC[C@@]5(C)[C@H]4CC[C@@]3(C)[C@H]1[C@H]2C (stereo partly drawn)
Reply | T
